Origin of values: the supplement of paper PMC11061612

System: NCI-H69 (Small Cell Lung Carcinoma);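 further: after 72 h of two-drug dosing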
procedure.text: Bliss excess, mean over the matrix (fraction); higher = more synergy
Reported Bliss excess is given for each of the following compounds.
Form rule: numeric answer, no unit written next to it.

Guide cases for Bliss excess, answers given:
# compound, Bliss excess
rows = [
    ("CCc1c2c(nc3ccc(O)cc13)-c1cc3c(c(=O)n1C2)COC(=O)[C@]3(O)CC [SN-38] + CN(C)CCCOc1ccc(-c2ccc3ncc4c(c3c2)n(C2CCOCC2)c(=O)n4C)cn1 [AZD0156] (first compound max 0.3 µM, 7x7, partner max 1 µM)", -0.0197),
    ("C=CCn1c(=O)c2cnc(Nc3ccc(N4CCN(C)CC4)cc3)nc2n1-c1cccc(C(C)(C)O)n1 [AZD1775] + C1CN(CCC1(C(=O)N[C@@H](CCO)C2=CC=C(C=C2)Cl)N)C3=NC=NC4=C3C=CN4 [Capivasertib] (first compound max 3 µM, partner max 3 µM)", -0.0601),
    ("Cc1cc2ncnn2cc1Nc1ncc2c(n1)n(C1CCOCC1)c(=O)n2C [AZD7648] + CN(C)CCCOc1ccc(-c2ccc3ncc4c(c3c2)n(C2CCOCC2)c(=O)n4C)cn1 [AZD0156] (first compound max 10 µM, 7x7, partner max 1 µM)", -0.044),
]

For the compound shown here, C[C@@H]1COCCN1c1cc(C2([S@](C)(=N)=O)CC2)nc(-c2ccnc3[nH]ccc23)n1 [AZD6738] + O=C(c1cc(Cc2n[nH]c(=O)c3ccccc23)ccc1F)N1CCN(C(=O)C2CC2)CC1 [Olaparib] (first compound max 10 µM, 7x7, partner max 10 µM) , give the reported Bliss excess.
-0.0283
